Target: dAsCas12a WT (Acidaminococcus sp., UniProt U2UMQ6 1-1307, D908A;E993A;D1235A)
Test: Spec-seq (native PAGE EMSA with sequencing of bound and unbound); 25 mM Tris-HCl pH 7.4, 150 mM KCl, 5 mM MgCl2, 10% glycerol, 1 mM DTT, 40 ng/uL salmon sperm DNA; 400 nM Cas12a, 480 nM crRNA, 50 nM library, 37 C 1 h; native P; high values mean tight binding
MEASURE: binding signal (lnKA)
Answer with a number only, understood to be in lnKA.

1. ATTC (dsDNA) DNA 1: GCTATCTAGTGCTCAGTACGCACTGATTCAGGAAACTTCTGGCAGGACCAGGTCATGAGATCGGAAGAGCACACGTCTGAACTCCAGTCA DNA 2: TGACTGGAGTTCAGACGTGTGCTCTTCCGATCTCATGACCTGGTCCTGCCAGAAGTTTCCTGAATCAGTGCGTACTGAGCACTAGATAGC RNA: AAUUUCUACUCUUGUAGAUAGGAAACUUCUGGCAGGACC	-6.67
2. ATTG (dsDNA) DNA 1: GCTATCTAGTGCTCAGTACGCACTGATTGAGGAAACTTCTGGCAGGACCAGGTCATGAGATCGGAAGAGCACACGTCTGAACTCCAGTCA DNA 2: TGACTGGAGTTCAGACGTGTGCTCTTCCGATCTCATGACCTGGTCCTGCCAGAAGTTTCCTCAATCAGTGCGTACTGAGCACTAGATAGC RNA: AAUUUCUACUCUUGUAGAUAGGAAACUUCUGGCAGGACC	-7.65

Now for another entry.
Req: So what's the measured binding signal for this one? TTTC (dsDNA) DNA 1: GCTATCTAGTGCTCAGTACGCACTGTTTCAGGAAACTTCTGGCAGGACCAGGTCATGAGATCGGAAGAGCACACGTCTGAACTCCAGTCA DNA 2: TGACTGGAGTTCAGACGTGTGCTCTTCCGATCTCATGACCTGGTCCTGCCAGAAGTTTCCTGAAACAGTGCGTACTGAGCACTAGATAGC RNA: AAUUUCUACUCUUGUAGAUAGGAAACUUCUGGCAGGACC
Resp: 0.0688
